Assay: Pharmacokinetic evaluation of QC-199 in mouse plasma and brain, IP or oral
Type: in vivo
Details: male, CD-1, mouse, in vivo, ip, 60 mg/kg, plasma, IP 60 mg/kg; from Lambda z
readout name: half-life (h)
Report as a plain number; the unit h is understood.

Challenge: Complete the entry with half-life for `Brc1ccc(CCCCn2ccnc2)cc1.Cl`
Response given: 4.8

----------
Experiment: Pharmacokinetic evaluation of QC-199 in mouse plasma and brain, IP or oral
Assay type: in vivo
Conditions: male, CD-1, mouse, in vivo; plasma, Oral 60 mg/kg; read-out: AUC0-inf
readout name: AUC(0-inf) (ng·h/mL)
Report as a plain number; the unit ng·h/mL is understood.

Challenge: Complete the entry with AUC(0-inf) for `Brc1ccc(CCCCn2ccnc2)cc1.Cl`
Response given: 67000

----------
Would you kindly list IC50 for each of these compounds?
Target: HO-2 (rat brain) (Rattus norvegicus, UniProt P23711)
Construct: brain microsomes were used as a source of HO-2; from tissue; host or cells: brain microsomal fraction of adult male Sprague-Dawley rats
Sequence (P23711 whole entry): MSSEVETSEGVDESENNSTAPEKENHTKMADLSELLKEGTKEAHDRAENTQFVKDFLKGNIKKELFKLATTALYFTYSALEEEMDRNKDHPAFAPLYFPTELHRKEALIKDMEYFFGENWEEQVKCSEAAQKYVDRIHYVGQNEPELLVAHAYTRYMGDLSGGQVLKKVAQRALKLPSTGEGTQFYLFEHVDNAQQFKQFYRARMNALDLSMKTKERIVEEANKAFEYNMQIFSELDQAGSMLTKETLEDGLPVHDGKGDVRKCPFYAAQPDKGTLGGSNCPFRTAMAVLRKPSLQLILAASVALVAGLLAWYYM
Assay: HO enzymatic activity in rat brain microsomal fraction (CO formed from methemalbumin, gas chromatography)
Format: biochemical
Details: rat brain microsomes; average ± standard deviation of replicate experiments; read-out: IC50 HO-2 (rat brain)/μM
Structures can show the parent of a compound that is named as a salt.
Report as a plain number; the unit µM is understood.

Challenge: Complete the entry with IC50 for O=C(Cn1ccnc1)c1ccc(Cl)cc1Cl [hydrochloride]
Response given: 15

Challenge: Complete the entry with IC50 for O=C(CCc1ccc(I)cc1)Cn1ccnc1 [hydrochloride]
Response given: 1.8

Challenge: Complete the entry with IC50 for Clc1ccc(CCCCn2ccnc2)cc1 [hydrochloride]
Response given: 4

Challenge: Complete the entry with IC50 for Clc1ccc(CC[C@@]2(Cn3ccnc3)OC[C@@H](CSc3ccc(Br)cc3)O2)cc1 [hydrochloride]
Response given: 2.4

Challenge: Complete the entry with IC50 for c1cn(CCCCc2ccc(CCCCn3ccnc3)cc2)cn1 [dihydrochloride]
Response given: 8

Challenge: Complete the entry with IC50 for O=C(CCn1ccnc1)C(c1ccccc1)c1ccccc1 [hydrochloride]
Response given: 2.2

Challenge: Complete the entry with IC50 for COc1ccc(OCC2CO[C@](CCc3ccc(Cl)cc3)(Cn3ccnc3)O2)cc1 (stereo in doubt) [hydrochloride]
Response given: 29

Challenge: Complete the entry with IC50 for `O=C(Cn1cncn1)c1ccc2c(c1)CCCC2`
Response given: 4

Challenge: Complete the entry with IC50 for OC(Cn1ccnc1)c1ccc(Cl)cc1 (racemic) [hydrochloride]
Response given: 16

Challenge: Complete the entry with IC50 for O=C(Cn1ccnc1)c1ccc(Cc2ccccc2)cc1 [hydrochloride]
Response given: 2.3

Challenge: Complete the entry with IC50 for COc1ccc(OCC2CO[C@@](CCc3ccc(Cl)cc3)(Cn3ccnc3)O2)cc1 (stereo in doubt) [hydrochloride]
Response given: 19

Challenge: Complete the entry with IC50 for FC(F)(F)c1ccc(SC[C@@H]2CO[C@@](CCc3ccc(Cl)cc3)(Cn3ccnc3)O2)nc1 [hydrochloride]
Response given: 16

Challenge: Complete the entry with IC50 for Clc1ccc(CC[C@@]2(Cn3ccnc3)OC[C@@H](CSc3cccc(Br)c3)O2)cc1 [hydrochloride]
Response given: 22

Challenge: Complete the entry with IC50 for Cc1ccc(CCC(=O)Cn2ccnc2)cc1 [hydrochloride]
Response given: 3.7

Challenge: Complete the entry with IC50 for c1ccc(OCCCn2ccnc2)cc1 [hydrochloride]
Response given: 206

Challenge: Complete the entry with IC50 for O=C(CCCc1ccccc1)Cn1ccnc1 [hydrochloride]
Response given: 6

Challenge: Complete the entry with IC50 for OC(CCn1ccnc1)C12CC3CC(CC(C3)C1)C2 (racemic) [hydrochloride]
Response given: 6.5
